B1: Histone H1t, residues 44 to 112; numbered along this chain, P22492 (parent)
chain: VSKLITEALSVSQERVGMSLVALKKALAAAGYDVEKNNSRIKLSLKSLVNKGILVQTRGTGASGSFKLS

# Variants of: B1
# assay-text: abundance fitness (aPCA) (normalised: wild type 0, dead -1); higher = more abundant; growth selection in yeast, the domain comes from the species named
# setup-conditions: Homo sapiens
Entries and their abundance fitness
attribute-measured: abundance fitness

> print(dat)
    mutation.label  experimental.value
 1            R58D               0.022
 2            S44I              -0.239
 3            L27G              -0.681
 4            G59S              -0.113
 5            N37D              -0.397
 6            L54P              -0.083
 7            S65Q               0.039
 8            G64Q               0.085
 9            V49W              -0.495
10            A30R               0.051

Reference for the values: the Human Domainome abundance scans (Beltran et al. 2025)
